These measurements were taken from ChEMBL document CHEMBL4130528.

- Tested on: MDA-MB-231
- assay-name: Cytotoxicity against human MDA-MB-231 cells assessed as reduction in cell viability by cell titer 96 aqueous one solution based assay
- Assay type: functional
reported-endpoint: IC50 (µM)
Value expressed in µM; do not type the unit.

In the examples that follow, each entry is paired with its recorded IC50.
CCCCOc1ccc2[nH]cc(CCN)c2c1	48
CCCCCCCCCOc1ccc2[nH]cc(CCN)c2c1	4.7
CCCCCCCCCCCOc1ccc2[nH]cc(CCN)c2c1	4.4
CCCCCCCCCOc1cccc2[nH]cc(CCN)c12.Cl	4.2
CCCCCCCCCCOc1ccc2[nH]cc(CCN)c2c1	4.4

Q) Retrieve IC50 measured for CCCCCCCCCCCCCCOc1ccc2[nH]cc(CCN)c2c1 and print it.
A) 4.8

Q) In one line, give reported IC50 of the entry CCCCCCCCCCCCOc1cccc2c(CCN)c[nH]c12 .
A) 4.6

Q) Supply measured IC50 of CCCCCCCCCCCCCCCCOc1ccc2[nH]cc(CCN)c2c1 in your reply.
A) 7.5

Q) Output IC50 of NCCc1c[nH]c2ccc(OCCCCCCCCCBr)cc12
A) 10

Q) Output IC50 of CCCCCCCCCCCCOc1cccc2[nH]cc(CCN)c12
A) 4.1

Q) Please supply the value of reported IC50 for the item CCCCCCCCCCCCOc1ccc2[nH]cc(CCN)c2c1.Cl
A) 4.6
